# assayDetails: survival rescue of mitochondrial mutant cells in low glucose, primary screen, MELAS cybrids, Rieske KO mouse fibroblasts, CellTiter-Glo (AID 1508586);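 note: z relative to plate mean and SD of compound and empty wells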
# measurementConditions: Rieske KO mouse fibroblast survival, CellTiter-Glo 72 h
endpointLabel: z-score

COc1cc2ncnc(Nc3ccc4c(cnn4Cc4ccccc4)c3)c2cc1OC; -0.293
Nc1nc(-c2ccc3c(c2)/C(=C\c2cc(Br)c(O)c(Br)c2)C(=O)N3)cs1; -0.14
COc1cc(Nc2ncc(-c3ccccc3)o2)cc(OC)c1OC; -0.275
CCn1c(-c2nonc2N)nc2c(C#CC(C)(C)O)ncc(OC3CCNCC3)c21; -0.284
NS(=O)(=O)c1ccc(N=Nc2c(O)[nH]c3ccc(-c4cnco4)cc23)cc1; -0.0502
COc1ccc(-c2cc3c(N)ncnc3o2)cc1; 0.359

---

# assayDetails: growth inhibition of GSK3B-pretreated HCT116 cells – cell-based, CellTiter-Glo, 0.2 to 20 µM (AID 1117336)
# measurementConditions: HCT116 viability after GSK3B inhibitor, at 20 µM, stronger effect = higher value
The following compounds are listed with their measured viability decrease values.
endpointLabel: viability decrease (%)

CCCC(=O)O[C@]1(C(=O)COC(=O)CC)CC[C@H]2[C@@H]3CCC4=CC(=O)CC[C@]4(C)[C@H]3[C@@H](O)C[C@@]21C; -8.8
Oc1cccc(O)c1O; 68.9
C/C=C/C(=O)N(CC)c1ccccc1C; -18.4
CC(C)(C)C(=O)OCOC(=O)C1N2C(=O)CC2S(=O)(=O)C1(C)C (stereo not given); 10.9
C[C@@H](O)[C@H]1C(=O)N2C(C(=O)O)=C([C@H]3CCCO3)S[C@H]12; 13.8
CC(C)(C)NCC(O)c1cc(O)cc(O)c1 (stereo not given); -25.1
CCN(CC)CCNC(=O)COc1ccc(Cl)cc1; -9.5
CCOC(=O)C(=O)CCCCCCl; 12.3
NC[C@@H]1O[C@H](O[C@H]2[C@H](O)[C@H](O[C@H]3[C@@H](O)[C@H](N)C[C@H](N)[C@H]3O[C@H]3O[C@H](CN)[C@H](O)[C@H](O)[C@H]3N)O[C@@H]2CO)[C@@H](N)[C@@H](O)[C@@H]1O; -8.9
NC(N)=NN=C(/C=C/c1ccc([N+](=O)[O-])o1)/C=C/c1ccc([N+](=O)[O-])o1; 99.3

---

The following compounds are listed with their measured viability values.
# assayDetails: ovarian cancer cell viability with rucaparib, profiling panel, oncology-focused library, rucaparib conditional (AID 1508598)
# measurementConditions: patient-derived ovarian cancer cells, CellTiter-Glo viability, 144 h; at 0.0781 µM; OCI-C5x cells; without rucaparib; stronger effect = lower value
endpointLabel: viability (%)

S=c1nc[nH]c2nc[nH]c12; 95.4
NC(=O)c1ccc(-c2nc(-c3ccc4c(c3)OCO4)c(-c3ccccn3)[nH]2)cc1; 147
CC1=C(/C=C/C(C)=C/C=C/C(C)=C/C(=O)O)C(C)(C)CCC1; 122
CN(CCOc1ccc(CC2SC(=O)NC2=O)cc1)c1ccccn1 (centres undefined); 128
CC(C)C(=O)Nc1ccc([N+](=O)[O-])c(C(F)(F)F)c1; 116
O=C1CCC(N2C(=O)c3ccccc3C2=O)C(=O)N1 (centres undefined); 104
O=c1[nH]cnc2[nH]ncc12; 124
CCN(CC)C(=S)SSC(=S)N(CC)CC; 120
O=c1[nH]cc(F)c(=O)[nH]1; 102

---

The following compounds are listed with their measured viability decrease values.
# assayDetails: growth inhibition of GSK3B-pretreated HCT116 cells – cell-based, CellTiter-Glo, 0.2 to 20 µM (AID 1117336)
# measurementConditions: HCT116 viability after GSK3B inhibitor, at 20 µM, stronger effect = higher value
endpointLabel: viability decrease (%)

c1ccc(-c2ccc(C(c3ccccc3)n3ccnc3)cc2)cc1 (centres undefined); 99.7
NC(Cc1ccc([N+](=O)[O-])cc1)C(=O)O (centres undefined); -7.7
O=C(Nc1ccc(Oc2ccc(Cl)cc2)c(Cl)c1)c1cc(I)cc(I)c1O; 122
CCCCCCCCCCCCCCCCCCNC(=O)OC1CCN(C(=O)OC[C@H](COC(=O)N(Cc2cccc[n+]2CC)C(=O)c2ccccc2OC)OC)CC1; 110
Nc1ncn([C@@H]2O[C@H](CO)[C@@H](O)[C@H]2O)c(=O)n1; 83.3
Nc1c(N=Nc2ccc(-c3ccc(N=Nc4cc(S(=O)(=O)O)c5ccccc5c4N)cc3)cc2)cc(S(=O)(=O)O)c2ccccc12; -26.6
COc1ccc(C(=O)N2CCN(CC(=O)N3CCOCC3)CC2)cc1; 6.4
CO/N=C(/C(=O)N[C@@H]1C(=O)N2C(C(=O)O)=C(Cn3nnc(C)n3)CS[C@H]12)c1csc(N)n1; 2.9
O=C(CN1CCN(Cc2ccc3c(c2)OCO3)CC1)N1c2ccccc2Sc2ccccc21; 63.5

---

# assayDetails: HD-MB03 medulloblastoma cell growth inhibition, synergistic combos for chromothripsis tumors, BGB or cisplatin IC20 combos (AID 1671455);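 note: 0% = vehicle DMSO and 100% = high DMSO as cytotoxic control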
# measurementConditions: HD-MB03 medulloblastoma cells, measured here: combo with cisplatin at IC20, at 0.5 µM, stronger effect = higher value
The following compounds are listed with their measured inhibition values.
endpointLabel: inhibition (%)

O=C1c2c(O)ccc(O)c2C(=O)c2c(NCCNCCO)ccc(NCCNCCO)c21; 84.8
CCN(CC)CCCC(C)Nc1c2ccc(Cl)cc2nc2ccc(OC)cc12 (stereo not given); -11.8
CCn1cc(C(=O)O)c(=O)c2cc(F)c(N3CCNCC3)cc21; 4.39
O=c1[nH]cc(F)c(=O)[nH]1; -6.42
O=C(O)CCCc1ccccc1; -7.42

---

# System: R275C/Slo1WT/beta2
# assayDetails: modulators of BK channel variants, profiling panel, selectivity assay, cell-based, U2OS BacMam, thallium flux, beta subunits (AID 1259406);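 note: initial slope of Thallos dye fluorescence rise after thallium is added; log ratio against the mean of 0.3% DMSO vehicle wells on the same plate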
# measurementConditions: at 30 µM
endpointLabel: log fold change Tl+ flux

O=C(C1CCCCC1)N1CC(=O)N2CCc3ccccc3C2C1 (stereo unspecified); 0.0259
CS(=O)(=O)OCCCCOS(C)(=O)=O; 0.0135
C[C@]12CCC(=O)C=C1CC[C@@H]1[C@@H]2C(=O)C[C@@]2(C)[C@H]1CC[C@]2(O)C(=O)CO; 0.0155
OC(CCN1CCCC1)(c1ccccc1)C1CCCCC1 (stereo unspecified); -0.0137
NCCc1ccc(O)c(O)c1; 0.00323
C[C@H](CCC(=O)O)[C@H]1CC[C@H]2[C@@H]3C(=O)C[C@@H]4CC(=O)CC[C@]4(C)[C@H]3CC(=O)[C@]12C; -0.0176
CCN(CC)CCOC(=O)c1ccc(N)cc1; -0.013
COCCOC(=O)C1=C(C)NC(C)=C(C(=O)OC(C)C)C1c1cccc([N+](=O)[O-])c1 (stereo unspecified); -0.0323
CN(C)CCCN1c2ccccc2CCc2ccccc21; 0.0178
Nc1nc2c(ncn2COCCO)c(=O)[nH]1; 0.0456
CC(CN1c2ccccc2Sc2ccccc21)N(C)C (stereo unspecified); -0.0568

---

# assayDetails: growth inhibition of RCMB18 medulloblastoma cells, cell-based, cisplatin and BGB IC40 combos (AID 1671462);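 note: cells exposed to compound for four days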
# measurementConditions: single agent, at 5 µM, stronger effect = higher value
Answer not met if inhibition is under 30%, and met if it is 30% or more.

CCN(CC)CCCC(C)Nc1c2ccc(Cl)cc2nc2ccc(OC)cc12 (stereo not given); met
O=C(O)CCCc1ccccc1; not met
O=c1[nH]cc(F)c(=O)[nH]1; not met
CCn1cc(C(=O)O)c(=O)c2cc(F)c(N3CCNCC3)cc21; not met
CC(=O)OCC(CCn1cnc2cnc(N)nc21)COC(C)=O; not met

---

# Test system: R275C/beta1
# assayDetails: modulators of BK channel variants, profiling panel, selectivity assay, cell-based, U2OS BacMam, thallium flux, beta subunits (AID 1259406);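 note: initial slope of Thallos dye fluorescence rise after thallium is added; log ratio against the mean of 0.3% DMSO vehicle wells on the same plate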
# measurementConditions: at 30 µM
Calls of active or inactive are those of the source.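 How the source made its calls: active means thallium flux through the channel raised or lowered by more than 3 SD from vehicle-only wells, actives on both sides; inactive means the rest.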
Outcome codes: 1 (yes) for active, 0 (no) for inactive

Cc1ccc(C)c(OCCCC(C)(C)C(=O)O)c1; 0 (no)
OC(CCN1CCCC1)(c1ccccc1)C1CCCCC1 (configuration not stated); 0 (no)
CCCCCCCCCCC[C@@H](C[C@@H]1OC(=O)[C@H]1CCCCCC)OC(=O)[C@H](CC(C)C)NC=O; 0 (no)
COc1ccccc1OCC(O)COC(N)=O (configuration not stated); 0 (no)
CN(C)CCN(Cc1ccccc1)c1ccccn1; 0 (no)
Nc1ncn([C@@H]2O[C@H](CO)[C@@H](O)[C@H]2O)c(=O)n1; 0 (no)
CNCCCC12CCC(c3ccccc31)c1ccccc12; 1 (yes)
CCN(CC)C(=S)SSC(=S)N(CC)CC; 1 (yes)
C[C@]12CCC(=O)C=C1CC[C@@H]1[C@@H]2C(=O)C[C@@]2(C)[C@H]1CC[C@]2(O)C(=O)CO; 0 (no)
CCCCCCNC(=O)n1cc(F)c(=O)[nH]c1=O; 0 (no)
CN(C)CCOC(c1ccccc1)c1ccccc1; 0 (no)
Cc1onc(-c2ccccc2)c1-c1ccc(S(N)(=O)=O)cc1; 0 (no)
CCCN(CCC)S(=O)(=O)c1ccc(C(=O)O)cc1; 0 (no)
CC1=NS(=O)(=O)c2cc(Cl)ccc2N1; 0 (no)
CS(=O)(=O)OCCCCOS(C)(=O)=O; 0 (no)
CC(=O)OCC(=O)[C@@]1(O)CC[C@H]2[C@@H]3CCC4=CC(=O)CC[C@]4(C)[C@H]3C(=O)C[C@@]21C; 0 (no)
OC(Cn1cncn1)(Cn1cncn1)c1ccc(F)cc1F; 0 (no)
Cc1onc(-c2c(Cl)cccc2Cl)c1C(=O)N[C@@H]1C(=O)N2[C@@H]1SC(C)(C)[C@@H]2C(=O)O; 0 (no)
Cc1noc(NS(=O)(=O)c2ccc(N)cc2)c1C; 0 (no)
Nc1c2c(nc3ccccc13)CCCC2; 0 (no)
Nc1nc2c(ncn2COCCO)c(=O)[nH]1; 0 (no)
CC(=O)OCC(=O)[C@@]12OC(C)(C)O[C@@H]1C[C@H]1[C@@H]3C[C@H](F)C4=CC(=O)C=C[C@]4(C)[C@@]3(F)[C@@H](O)C[C@@]12C; 0 (no)
